Provide the reported protein stability index of each item.
B1: SPDEF (parent)
chain: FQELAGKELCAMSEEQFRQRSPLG

- Variants of: B1
- assay-explanation: protein stability index of a GFP-peptide fusion (GPS, HEK-293T) (PSI 1-6); higher = more stable;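 also: lentivirally expressed fusions sorted by FACS into six bins by GFP to DsRed ratio, PSI derived from sequencing read proportions per bin multiplied by bin number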
- setup-conditions: c terminus: a fixed tail appended
Answers are plain numbers.

{"variant-key": "F1M", "measurement-kind": "protein stability index", "number": 3.98}
{"variant-key": "L4C", "measurement-kind": "protein stability index", "number": 4.02}
{"variant-key": "E8R", "measurement-kind": "protein stability index", "number": 1.78}
{"variant-key": "R18C", "measurement-kind": "protein stability index", "number": 2.51}
{"variant-key": "A5G", "measurement-kind": "protein stability index", "number": 2.88}
{"variant-key": "M12I", "measurement-kind": "protein stability index", "number": 2.46}
{"variant-key": "P22L", "measurement-kind": "protein stability index", "number": 2.88}
{"variant-key": "F1C", "measurement-kind": "protein stability index", "number": 3.9}
{"variant-key": "G24R", "measurement-kind": "protein stability index", "number": 2.42}
{"variant-key": "A11W", "measurement-kind": "protein stability index", "number": 2.83}

Record protein stability index per entry; entries follow.
1. A5I
2. F1I
3. E15I
4. M12S
5. R20F
6. G6T
7. L4K
8. Q16T

A.
2.47
3.88
2.04
3.75
2.2
3.32
3.59
2.65

Record protein stability index per entry; entries follow.
1. R18H
2. K7D
3. C10A
4. P22Q
5. Q16E
6. K7C

A.
[2.64, 4.25, 3.31, 2.74, 3.06, 1.99]

Record protein stability index per entry; entries follow.
1. E15H
2. C10Y
3. E3I
4. F1S

A.
2.01
2.4
2.55
4.61

Record protein stability index per entry; entries follow.
1. A5N
2. E14S
3. C10E
4. A11Q

A.
1: 2.82; 2: 2.3; 3: 3.9; 4: 3.55
